Experiment: Metabolic stability in rat microsomes, Phase I assay
Type: in vitro ADME
Details: pH 7.4; rat liver microsomes 0.5 mg/ml, compound 1 μM, NADP cofactors mixture, 37° C.; read-out: Metabolic Stability (t1/2, min) Phase1
READOUT NAME: half-life at 1 μM (min)

Solved cases (5 shown):
O=C(c1sc(-c2cccc(F)c2)nc1O)N1CCOCC1 [Example 12] | 54
O=C(c1sc(-c2cccc(F)c2)nc1O)N1CCCCCO1 [Example 27] | 75
O=C(c1sc(-c2ccccc2O)nc1O)N1CCOCC1 [Example 13] | 78
O=C(c1sc(-c2ccccc2O)nc1O)N1CCCO1 [Example 2] | 97
CN1CCCC1C(=O)c1sc(-c2cccc(F)c2)nc1O (stereo not shown) [Example 16] | 32

I: O=C(c1sc(-c2ccccc2O)nc1O)N1CCCCO1 [Example 8]
II: O=C(c1sc(-c2cccc(F)c2)nc1O)C1CCCO1 (stereo not shown) [Example 5]
Hi there! Just curious which has the higher half-life at 1 μM between I and II . Mark your answer with the label of the selected entry.
I
(I: 102 min, II: 52 min)

I: O=C(c1sc(-c2cccc(F)c2)nc1O)N1CCCCO1 [Example 9]
II: O=C(c1sc(-c2cccc(F)c2)nc1O)N1CCCO1 [Example 1]
Hi there! Just curious which has the higher half-life at 1 μM between I and II . Mark your answer with the label of the selected entry.
II

P: CC1CCN(C(=O)c2sc(-c3cccc(F)c3)nc2O)O1 (stereo not shown) [Example 29]
Q: O=C(c1ccncc1)c1sc(-c2cccc(F)c2)nc1O [Example 24]
Hi there! Just curious which has the higher half-life at 1 μM between P and Q . Mark your answer with the label of the selected entry.
P
(P: 91 min, Q: 40 min)

1: O=C(c1ccc[nH]1)c1sc(-c2cccc(F)c2)nc1O [Example 17]
2: O=C(c1sc(-c2cccc(F)c2)nc1O)n1ccnc1 [Example 25]
Hi there! Just curious which has the higher half-life at 1 μM between 1 and 2 . Mark your answer with the label of the selected entry.
1

I: O=C(c1cccs1)c1sc(-c2cccc(F)c2)nc1O [Example 20]
II: O=C(c1ccco1)c1sc(-c2cccc(F)c2)nc1O [Example 19]
Could you tell me which of these two has the smaller half-life at 1 μM figure? First: I Second: II Mark your answer with the label of the selected entry.
II

a: Cn1cccc1C(=O)c1sc(-c2cccc(F)c2)nc1O [Example 18]
b: O=C(c1cccnc1)c1sc(-c2cccc(F)c2)nc1O [Example 23]
Hi there! Just curious which has the higher half-life at 1 μM between a and b . Mark your answer with the label of the selected entry.
a

P: O=C(c1sc(-c2cccc(F)c2)nc1O)n1cccn1 [Example 26]
Q: O=C(c1sc(-c2ccccc2O)nc1O)N1CCCOC1 [Example 11]
Could you tell me which of these two has the smaller half-life at 1 μM figure? First: P Second: Q Mark your answer with the label of the selected entry.
Q

I: O=C(c1sc(-c2cccc(F)c2)nc1O)N1CCCCC1 [Example 14]
II: O=C(c1sc(-c2cccc(F)c2)nc1O)N1CCCC1 [Example 7]
Hi there! Just curious which has the higher half-life at 1 μM between I and II . Mark your answer with the label of the selected entry.
I
(I: 67 min, II: 46 min)
